Target system: UniProt:O39930
Test description: Inhibitory activity against HCV 1a NS5B RNA dependent RNA polymerase
Measured IC50 values are reported for all entries that follow.
Entry rule: numbers only, all in nM.

Input line: Field request: IC50 | item: O=C(O)c1ccc2c(c1)nc(-c1ccc(OC(c3ccc(Cl)cc3)c3ccc(Cl)cc3)cc1)n2C1CCCCC1
Output line: 2400

Input line: Next: O=C(O)c1ccc2c(c1)nc(-c1ccc(OC(c3cccc(F)c3)c3cccc(F)c3)cc1)n2C1CCCCC1
Output line: 1900

Input line: Next: Cc1ccc(C(Oc2ccc(-c3nc4cc(C(=O)O)ccc4n3C3CCCCC3)cc2)c2ccc(C)cc2)cc1
Output line: 3100

====

Tested on: Huh-5-2
Test description: Cytotoxicity against Huh5-2 cells by MTT assay
Type: functional
Condition summary: Homo sapiens
Measured CC50 values are reported for all entries that follow.
Entry rule: numbers only, all in µM.

Here's what some known entries look like.
>>> readout_number("O=C(O)c1ccc2c(c1)nc(-c1ccc(OC(c3ccccc3)c3ccccc3)cc1F)n2C1CCCCC1")
27.3
>>> readout_number("Cc1ccc(C(Oc2ccc(-c3nc4cc(C(=O)O)ccc4n3C3CCCCC3)cc2)c2ccc(C)cc2)cc1")
23.5
>>> readout_number("O=C(O)c1ccc2c(c1)nc(-c1ccc(OC(c3ccc(F)cc3)c3ccc(F)cc3)cc1)n2C1CCCCC1")
27.7
>>> readout_number("O=C(O)c1ccc2c(c1)nc(-c1ccc(OC(c3ccc(Cl)cc3)c3ccc(Cl)cc3)cc1)n2C1CCCCC1")
23.7

Alright, here's another compound for you.
Input line: Field request: CC50 | item: O=C(O)c1ccc2c(c1)nc(-c1ccc(OC(c3ccccc3)c3ccccc3)cc1)n2C1CCCCC1
Output line: 31.9

====

Measured CC50 values are reported for all entries that follow.
Test system: Huh-5-2
Test description: Cytotoxicity against Huh5-2 cells by MTT assay
Assay type: functional
Condition summary: Homo sapiens
Entry rule: numbers only, all in µM.

>>> readout_number("O=C(O)c1ccc2c(c1)nc(-c1ccc(OC(c3ccc(F)cc3)c3ccc(F)cc3)cc1F)n2C1CCCCC1")
27.2

Alright, here's another compound for you.
Input line: Field request: CC50 | item: O=C(O)c1ccc2c(c1)nc(-c1ccc(OC(c3cccc(F)c3)c3cccc(F)c3)cc1)n2C1CCCCC1
Output line: 24.4

====

Measured IC50 values are reported for all entries that follow.
Target system: RNA-directed RNA polymerase (Hepacivirus hominis)
Sequence (O39930 whole entry): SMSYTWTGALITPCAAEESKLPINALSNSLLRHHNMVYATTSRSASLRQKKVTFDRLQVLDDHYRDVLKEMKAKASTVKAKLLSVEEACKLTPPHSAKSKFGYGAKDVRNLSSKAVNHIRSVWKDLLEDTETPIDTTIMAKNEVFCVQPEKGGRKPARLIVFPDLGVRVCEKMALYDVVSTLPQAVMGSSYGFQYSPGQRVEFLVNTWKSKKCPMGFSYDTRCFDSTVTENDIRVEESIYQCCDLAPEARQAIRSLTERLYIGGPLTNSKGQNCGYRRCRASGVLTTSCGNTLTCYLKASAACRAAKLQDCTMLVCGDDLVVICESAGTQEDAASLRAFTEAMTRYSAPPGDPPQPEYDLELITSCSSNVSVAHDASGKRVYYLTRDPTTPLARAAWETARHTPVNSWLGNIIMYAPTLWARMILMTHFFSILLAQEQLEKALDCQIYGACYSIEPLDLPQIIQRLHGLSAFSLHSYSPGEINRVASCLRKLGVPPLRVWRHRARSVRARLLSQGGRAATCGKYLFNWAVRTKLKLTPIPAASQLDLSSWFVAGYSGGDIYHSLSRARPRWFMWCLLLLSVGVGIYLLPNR
Test description: Inhibitory activity against HCV 1a NS5B RNA dependent RNA polymerase
Entry rule: numbers only, all in nM.

Input line: Field request: IC50 | item: O=C(O)c1ccc2c(c1)nc(-c1ccc(OC(c3ccccc3)c3ccccc3)cc1F)n2C1CCCCC1
Output line: 800

Input line: Next: O=C(O)c1ccc2c(c1)nc(-c1ccc(OC(c3ccc(F)cc3)c3ccc(F)cc3)cc1)n2C1CCCCC1
Output line: 1700

Input line: Next: O=C(O)c1ccc2c(c1)nc(-c1ccc(OC(c3ccc(F)cc3)c3ccc(F)cc3)cc1F)n2C1CCCCC1
Output line: 840

Input line: Next: O=C(O)c1ccc2c(c1)nc(-c1ccc(OC(c3cccnc3)c3cccnc3)cc1F)n2C1CCCCC1
Output line: 2200

Input line: Next: O=C(O)c1ccc2c(c1)nc(-c1ccc(OC(c3ccccc3)c3ccccc3)cc1)n2C1CCCCC1
Output line: 1300

Input line: Next: O=C(O)c1ccc2c(c1)nc(-c1ccc(OC(c3ccccc3)c3cccnc3)cc1F)n2C1CCCCC1 (configuration not stated)
Output line: 800

Input line: Next: CN(C)C(=O)c1ccc(C(Oc2ccc(-c3nc4cc(C(=O)O)ccc4n3C3CCCCC3)c(F)c2)c2ccc(C(=O)N(C)C)cc2)cc1
Output line: 950
